Hello, the source for this data is ChEMBL document CHEMBL1153886, in case you need it.

System: Mus musculus
method: Antiinflammatory activity against carrageenan-induced paw edema in C57BL/6 mouse assessed as increase in paw volume at 100 mg/kg, po administered 1 hr before carrageenan challenge measured 4 hrs after carrageenan challenge relative to control
Type: functional

smiles_text: COc1ccccc1NC(=O)CCc1nc(Cc2ccc(NC(C)=O)cc2)no1
unit_descriptor: %
Activity: 9
--
smiles_text: CC(=O)Nc1ccc(Cc2noc(CCC(=O)NCc3ccccc3)n2)cc1
unit_descriptor: %
Activity: 17
--
smiles_text: COc1ccc(NC(=O)CCc2nc(Cc3ccc(NC(C)=O)cc3)no2)cc1F
unit_descriptor: %
Activity: 29
--
smiles_text: CC(=O)Nc1ccc(Cc2noc(CCC(=O)Nc3ccccc3F)n2)cc1
unit_descriptor: %
Activity: 24
--
smiles_text: CC(=O)Nc1ccc(Cc2noc(CCC(=O)Nc3ccc(F)cc3)n2)cc1
unit_descriptor: %
Activity: 26
--
smiles_text: CC(=O)Nc1ccc(Cc2noc(CCC(=O)Nc3cccnc3)n2)cc1
unit_descriptor: %
Activity: 9
--
smiles_text: COc1cccc(NC(=O)CCc2nc(Cc3ccc(NC(C)=O)cc3)no2)c1
unit_descriptor: %
Activity: 47
--
smiles_text: CC(=O)Nc1ccc(Cc2noc(CCC(=O)Nc3ccc(F)cc3F)n2)cc1
unit_descriptor: %
Activity: 34
--
smiles_text: COc1ccc(NC(=O)CCc2nc(Cc3ccc(NC(C)=O)cc3)no2)cc1OC
unit_descriptor: %
Activity: 3
--
smiles_text: COc1ccc(NC(=O)CCc2nc(Cc3ccc(NC(C)=O)cc3)no2)cc1
unit_descriptor: %
Activity: 37

###

Test system: Mus musculus
method: Antiinflammatory activity against carrageenan-induced paw edema in C57BL/6 mouse assessed as increase in paw volume at 100 mg/kg, po administered 1 hr before carrageenan challenge measured 4 hrs after carrageenan challenge relative to control
Type: functional
Please enter Condition met where Activity is greater than or equal to 40%, and Condition not met where it is lower.

molecule: CC(=O)Nc1ccc(Cc2noc(CCC(=O)Nc3ccc(C(F)(F)F)cc3)n2)cc1
label: Condition met
--
molecule: CC(=O)Nc1ccc(Cc2noc(CCC(=O)Nc3ccccc3)n2)cc1
label: Condition met
--
molecule: O=C([O-])Cc1ccccc1Nc1c(Cl)cccc1Cl.[Na+] [DICLOFENAC SODIUM]
label: Condition not met
--
molecule: C#Cc1cccc(NC(=O)CCc2nc(Cc3ccc(NC(C)=O)cc3)no2)c1
label: Condition not met
--
molecule: CC(=O)Nc1ccc(Cc2noc(CCC(=O)Nc3cccc(C)c3)n2)cc1
label: Condition met
--
molecule: CC(=O)Nc1ccc(Cc2noc(CCC(=O)O)n2)cc1
label: Condition not met
